Value source: paper PMC8943889

system: K. pneumoniae JS-123; format: cell-based; conditions: JS-123, 16 h
Positions of bridges follow the written chain, without caps; N, C: chain ends. Non-standard residues stand in square brackets, D forms with d. Residues, ends and D or L forms follow the SMILES beside them. *: point of attachment. Octanoyl(7-Me) = CC(C)CCCCCC(=O)*; dOrn = NCCC[C@@H](N)C(=O)O; Orn = NCCC[C@H](N)C(=O)O
experimental.endpoint: MIC (µg/mL)
Write the answer as a number in µg/mL, unit excluded.

// query Let me know recorded MIC for CC[C@H](C)[C@@H]1NC(=O)[C@@H](NC(=O)[C@H](Cc2c[nH]c3ccccc23)NC(=O)[C@@H](CCCN)NC(=O)CNC(=O)[C@H](CCCN)NC(=O)[C@@H](CCCN)NC(=O)[C@@H](Cc2c[nH]c3ccccc23)NC(=O)[C@@H](Cc2ccc(O)cc2)NC(=O)[C@@H](CO)NC(=O)CCCCCC(C)C)COC(=O)CNC(=O)CNC(=O)[C@H](CC(N)=O)NC1=O [Ser9-Lat (4), Ser9-Laterocidine] ({Octanoyl(7-Me)}-[dS][dY][dW][dOrn][Orn]G[dOrn]WSINGG; ester 9-C) , thanks.
// result 0.5

###

system: E. coli ATCC 25922; type: cell-based; details: ATCC 25922, 16 h
// values below are reported MIC
# value in µg/mL; strip the unit string

CC[C@H](C)[C@@H]1NC(=O)[C@@H](NC(=O)[C@H](Cc2c[nH]c3ccccc23)NC(=O)[C@@H](CCCN)NC(=O)CNC(=O)[C@H](CCCN)NC(=O)[C@@H](CCCN)NC(=O)[C@@H](Cc2c[nH]c3ccccc23)NC(=O)[C@@H](Cc2ccc(O)cc2)NC(=O)[C@@H](CO)NC(=O)CCCCCC(C)C)[C@@H](C)NC(=O)CNC(=O)CNC(=O)[C@H](CC(N)=O)NC1=O | 1

// query Identify MIC associated with the molecule CCC(C)CCC(=O)N[C@@H](CC(N)=O)C(=O)N[C@@H](Cc1ccc(O)cc1)C(=O)N[C@@H](Cc1c[nH]c2ccccc12)C(=O)N[C@@H](CCCN)C(=O)N[C@H](CCCN)C(=O)NCC(=O)N[C@@H](CCCN)C(=O)N[C@H](Cc1c[nH]c2ccccc12)C(=O)N[C@H]1C(=O)N[C@H]([C@H](C)CC)C(=O)NCC(=O)N[C@H](CO)C(=O)O[C@H]1C (single isomer, unassigned) [ent-Brev (ent-1), ent-brevicidine]
// result 16

// query Identify MIC associated with the molecule CCC(C)CCC(=O)N[C@H](CC(N)=O)C(=O)N[C@H](Cc1ccc(O)cc1)C(=O)N[C@H](Cc1c[nH]c2ccccc12)C(=O)N[C@H](CCCN)C(=O)N[C@@H](CCCN)C(=O)NCC(=O)N[C@H](CCCN)C(=O)N[C@@H](Cc1c[nH]c2ccccc12)C(=O)N[C@@H]1C(=O)N[C@@H]([C@@H](C)CC)C(=O)NCC(=O)N[C@@H](CO)C(=O)N[C@@H]1C (stereo partly shown)
// result 16

###

Test system: A. baumannii ATCC 17961
Assay type: cell-based
Details: ATCC 17961, 16 h
Experimental: Minimum inhibitory concentrations (MICs) were determined by broth microdilution according to CLSI guidelines in triplicate. […]
experimental.endpoint: MIC (µg/mL)
Number in µg/mL, nothing else.

// query For CC[C@H](C)[C@@H]1NC(=O)[C@@H](NC(=O)[C@H](Cc2c[nH]c3ccccc23)NC(=O)[C@@H](CCCN)NC(=O)CNC(=O)[C@H](CCCN)NC(=O)[C@@H](CCCN)NC(=O)[C@@H](Cc2c[nH]c3ccccc23)NC(=O)[C@@H](Cc2ccc(O)cc2)NC(=O)[C@@H](CO)NC(=O)CCCCCC(C)C)[C@@H](C)NC(=O)CNC(=O)CNC(=O)[C@H](CC(N)=O)NC1=O , write its MIC.
// result 2

###

tested on: A. baumannii 2018-006; type: cell-based; details: 2018-006, 16 h
Positions of bridges follow the written chain, without caps; N, C: chain ends. Non-standard residues stand in square brackets, D forms with d. Residues, ends and D or L forms follow the SMILES beside them. ξ: configuration not given here. *: point of attachment. Hexanoyl(4ξ-Me) = CCC(C)CCC(=O)*; dOrn = NCCC[C@@H](N)C(=O)O; Orn = NCCC[C@H](N)C(=O)O
experimental.endpoint: MIC (µg/mL)
State the answer as a number, implicitly in µg/mL.

CCC(C)CCC(=O)N[C@H](CC(N)=O)C(=O)N[C@H](Cc1ccc(O)cc1)C(=O)N[C@H](Cc1c[nH]c2ccccc12)C(=O)N[C@H](CCCN)C(=O)N[C@@H](CCCN)C(=O)NCC(=O)N[C@H](CCCN)C(=O)N[C@@H](Cc1c[nH]c2ccccc12)C(=O)N[C@H]1COC(=O)[C@H](CO)NC(=O)CNC(=O)[C@H]([C@@H](C)CC)NC1=O (stereo partly drawn) [Ser9-Brev (3), Ser9-Brevicidine] ({Hexanoyl(4ξ-Me)}-[dN][dY][dW][dOrn][Orn]G[dOrn]WSIGS; ester 9-C) | 2

// query Specify the recorded MIC for CCC(C)CCC(=O)N[C@H](CC(N)=O)C(=O)N[C@H](Cc1ccc(O)cc1)C(=O)N[C@H](Cc1c[nH]c2ccccc12)C(=O)N[C@H](CCCN)C(=O)N[C@@H](CCCN)C(=O)NCC(=O)N[C@H](CCCN)C(=O)N[C@@H](Cc1c[nH]c2ccccc12)C(=O)N[C@@H]1C(=O)N[C@@H]([C@@H](C)CC)C(=O)NCC(=O)N[C@@H](CO)C(=O)O[C@@H]1C (stereo partly drawn) , system: A. baumannii 2018-006.
// result 4
